- MEASUREMENT TARGET: Ubiquitin-activating enzyme e1, putative (Leishmania donovani (strain BPK282A1))
- ASSAY METHOD TEXT: Leishmania donovani Ubiquitin Activating Enzyme (LdE1)
- Assay type: functional
- Parameters: scale not given: direction of the effect not stated beside the values
- SETTINGS: 30 µM
Potency and affinity values are given separately.
Threshold rule: Percent Effect greater than or equal to 5% is met; below that, not met.

Use the examples below as a reference point.
CC(=O)N1CCCC1c1cccc(Cc2ccc(F)cc2)n1 (stereo unspecified) = met
Cc1ccc(C(=O)N2C[C@@H]3OCCN(CCN4CCCC4)[C@@H]3C2)cn1 = met
COCCNC(=O)Nc1ccc(-n2cncn2)c(F)c1 = not met
Cc1ccsc1CN(C)C(=O)Cn1nc(-c2ccc(F)cc2)oc1=O = met
COc1ccc(C(=O)N2C[C@@H](CN3CCOCC3)[C@@H](CO)C2)c(C)c1 = not met
COc1ccc(CNCCc2cc(F)cc3c2OCOC3)cc1O = not met
CC(C)CCN(C)C(=O)c1nc(S(C)(=O)=O)n2ccccc12 = met
COc1ccc(OCC(=O)NC(C)c2ccccc2)c(C(=O)O)c1 (stereo unspecified) = not met

(Q) Determine whether this molecule has Percent Effect no lower than 5%: COCCN1CCN(Cc2cccc(C(=O)N(C)C)c2)CC1C (stereo unspecified)
(A) met

(Q) Determine whether this molecule has Percent Effect no lower than 5%: Cc1ccc(C(NC(=O)[C@H]2CC[C@@H](O)CC2)c2cccnc2)cc1C (stereo partly specified)
(A) met

(Q) Determine whether this molecule has Percent Effect no lower than 5%: COC(=O)CN(C)C1CCc2ccccc21 (stereo unspecified)
(A) met
